# Tested on: HIV-1
# MEASUREMENT_DESCRIPTION: HIV-1 reverse transcriptase assay in infected CEM cells
# Format: cell-based, strain IIIB of HIV-1
# TEST_PARAMETERS: Example 26; high multiplicity of infection (moi); read-out: HIV-1 IC50, reverse transcriptase assay
# Method: (d) HIV-1. Reverse transcriptase (RT) was employed as a marker for HIV-1. This assay measured the presence of HIV in supernatants of CEM cells infected with strain IIIB of HIV-1 by the amount of RT activity. Cells were grown, infected, and incubated in the presence of seven concentrations (one-half log10 dilutions) beginning at 1 or 100 μM of compounds to be assayed. Procedures and the RT assay were performed as detailed previously. […]
pIC50: −log10 of the molar value.
TEST_READOUT: pIC50

// pIC50 value for Nc1nc(N)c2ncn(C=C3CC3CO)c2n1 (stereo not shown) [S-1 (B = 2,6-diaminopurine), Example 22] : < 4.00

// pIC50 value for Nc1nc(NC2CC2)c2ncn(C=C3CC3CO)c2n1 (stereo not shown) [R-1 (B = 2-aminopurine-6-cyclo-propylaminopurine), Example 2] : < 4.00

// pIC50 value for Nc1ncnc2c1ncn2/C=C1/C[C@@H]1CO [S-1 (B = adenine), Example 24, (S)-(+)-Synadenol] : 5.92

// pIC50 value for Nc1nc2c(ncn2C=C2CC2CO)c(=O)[nH]1 (stereo not shown) [R-1 (B = guanine), Example 22] : < 4.00
